B1: glmS ribozyme (parent)
chain: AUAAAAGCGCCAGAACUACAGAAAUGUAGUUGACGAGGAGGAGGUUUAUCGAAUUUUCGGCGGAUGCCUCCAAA

variants of: B1; assay: self-cleavage kobs at 2500 uM GlcN6P; higher = faster cleavage; RNA array; details: with glucosamine-6-phosphate
Variants at the floor of the assay were thinned out.
self-cleavage kobs at 2500 uM GlcN6P reference
All answers are understood in s⁻¹, so give the number only.

Some solved cases for reference:
1. G62C C70G C71A    5.21e-05
2. A6U U55G    0.000118
3. A12C G29U U65A    0.000175
4. U46A C71A    0.000566

variant A14U U55G C58G , self-cleavage kobs at 2500 uM GlcN6P observed: 5.25e-05

Memo: G13A U30G U56A , reported self-cleavage kobs at 2500 uM GlcN6P: 7.43e-05

Data point: U46C ; self-cleavage kobs at 2500 uM GlcN6P = 0.00342

// self-cleavage kobs at 2500 uM GlcN6P lookup, variant = G9U C61G , result: 9.21e-05

The recorded self-cleavage kobs at 2500 uM GlcN6P for entry A15G A53C C68U equals 0.000114

Lab note: A33U C71U gave self-cleavage kobs at 2500 uM GlcN6P of 5.58e-05
